Please provide measured pIC50 for the entries that follow.
# system_tested: Human vitronectin receptor (αv β3) (Homo sapiens, UniProt P05106+P06756)
# Construct: Human vitronectin receptor (αv β3) was purified from human placenta; from tissue; host or cells: human placenta
# Sequence (P06756 31-889 limits assumed, one chain of several): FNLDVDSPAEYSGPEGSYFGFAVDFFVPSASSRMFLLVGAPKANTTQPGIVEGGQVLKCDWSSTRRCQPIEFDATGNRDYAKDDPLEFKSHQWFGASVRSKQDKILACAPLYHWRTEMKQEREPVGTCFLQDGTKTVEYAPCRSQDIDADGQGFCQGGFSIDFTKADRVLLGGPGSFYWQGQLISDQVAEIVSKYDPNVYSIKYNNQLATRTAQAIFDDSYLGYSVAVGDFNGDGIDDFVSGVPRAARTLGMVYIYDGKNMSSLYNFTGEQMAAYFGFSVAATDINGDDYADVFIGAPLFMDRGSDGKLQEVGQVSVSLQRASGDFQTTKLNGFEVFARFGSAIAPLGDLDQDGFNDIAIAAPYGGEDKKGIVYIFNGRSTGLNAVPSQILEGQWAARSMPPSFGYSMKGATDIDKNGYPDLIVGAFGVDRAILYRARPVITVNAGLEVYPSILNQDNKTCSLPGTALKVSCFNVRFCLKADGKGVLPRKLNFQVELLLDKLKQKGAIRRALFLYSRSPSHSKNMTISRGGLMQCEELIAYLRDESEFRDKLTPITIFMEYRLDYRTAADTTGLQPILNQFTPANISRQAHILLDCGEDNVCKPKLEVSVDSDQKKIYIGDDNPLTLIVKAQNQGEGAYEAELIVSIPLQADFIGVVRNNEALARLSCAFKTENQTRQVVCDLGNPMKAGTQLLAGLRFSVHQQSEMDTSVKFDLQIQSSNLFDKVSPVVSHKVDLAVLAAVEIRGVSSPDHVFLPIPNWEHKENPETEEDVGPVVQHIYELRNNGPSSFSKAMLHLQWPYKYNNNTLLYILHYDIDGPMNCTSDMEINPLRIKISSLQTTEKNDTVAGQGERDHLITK
# Sequence (P06756 891-1048 limits assumed, one chain of several): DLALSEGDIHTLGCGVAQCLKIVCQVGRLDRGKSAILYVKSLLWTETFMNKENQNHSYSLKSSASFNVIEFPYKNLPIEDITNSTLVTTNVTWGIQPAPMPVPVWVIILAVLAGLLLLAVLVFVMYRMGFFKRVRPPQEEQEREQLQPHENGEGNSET
# assay_summary: Vitronectin adhesion assay (solid phase receptor assay, αvβ3)
# Format: binding
# test_conditions: inhibition of binding of biotinylated human vitronectin (1 nM) to purified receptor; Table I; read-out: AvB3 IC50
Structures can show the parent of a compound that is named as a salt.
Numbers only, as −log10 of the molar value.

Worked cases, answers included:
N=C(N)Nc1cccc(C(=O)Nc2ccc(/C=C(\NC(=O)c3ccccc3)C(=O)O)cc2)c1 [Example 60, trifluoroacetate salt] : 7.17
N=C(N)Nc1cccc(C(=O)COc2cccc(/C=C/C(=O)O)c2)c1 [Example 79, trifluoroacetate salt] : 7.92

Give pIC50 for each listed item.
1. N=C(N)Nc1cccc(C(=O)Nc2ccc(C(=CC(=O)O)c3ccccc3)cc2)c1 (single isomer, unassigned) [Example 58, trifluoroacetate salt]
2. NC(=O)N=C(N)Nc1cccc(C(=O)Nc2ccc(/C=C/C(=O)O)cc2)c1 [Example 52, trifluoroacetate salt]
3. O=C(O)/C=C/c1cccc(/C=C/C(=O)c2cccc(NC3=NCCCN3)c2)c1 [Example 94, trifluoroacetate salt]
4. N=C(N)Nc1cccc(C(=O)NCc2cccc(/C=C/C(=O)O)c2)c1 [Example 2, trifluoroacetate salt]
5. COc1ccc(/C=C/C(=O)O)cc1C(=O)/C=C/c1cccc(NC2=NCCN2)c1 [Example 87, trifluoroacetate salt]

Marked response:
1: 7.10; 2: 7.14; 3: 7.95; 4: 7.89; 5: 7.04

###

# system_tested: Human fibrinogen receptor (αIIb β3) (Homo sapiens, UniProt P05106+P08514)
# Construct: Human fibrinogen receptor (αIIb β3) was purified from outdated platelets; from tissue; host or cells: human outdated platelets
# Sequence (P08514 32-887 limits assumed): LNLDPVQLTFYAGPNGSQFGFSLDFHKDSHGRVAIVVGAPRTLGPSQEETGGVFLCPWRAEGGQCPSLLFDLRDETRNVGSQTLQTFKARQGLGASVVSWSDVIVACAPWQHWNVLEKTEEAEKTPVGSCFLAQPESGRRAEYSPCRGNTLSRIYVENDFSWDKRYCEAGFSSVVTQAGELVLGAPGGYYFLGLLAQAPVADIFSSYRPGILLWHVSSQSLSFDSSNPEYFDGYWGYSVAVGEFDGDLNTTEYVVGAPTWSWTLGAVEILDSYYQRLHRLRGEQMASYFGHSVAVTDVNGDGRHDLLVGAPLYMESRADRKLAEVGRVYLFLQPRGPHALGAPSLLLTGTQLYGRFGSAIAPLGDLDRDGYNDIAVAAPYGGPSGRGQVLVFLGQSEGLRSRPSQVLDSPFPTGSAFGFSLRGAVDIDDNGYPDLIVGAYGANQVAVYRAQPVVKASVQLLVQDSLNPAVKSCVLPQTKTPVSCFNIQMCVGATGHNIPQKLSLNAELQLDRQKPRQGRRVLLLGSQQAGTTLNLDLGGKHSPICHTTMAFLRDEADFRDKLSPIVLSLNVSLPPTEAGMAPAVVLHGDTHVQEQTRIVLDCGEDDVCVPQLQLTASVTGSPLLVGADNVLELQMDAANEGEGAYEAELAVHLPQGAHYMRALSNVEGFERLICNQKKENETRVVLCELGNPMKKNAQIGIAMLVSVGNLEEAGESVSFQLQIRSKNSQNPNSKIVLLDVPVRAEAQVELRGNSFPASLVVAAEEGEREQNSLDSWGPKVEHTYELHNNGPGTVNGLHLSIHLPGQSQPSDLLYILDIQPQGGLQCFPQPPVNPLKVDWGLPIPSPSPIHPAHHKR
# Sequence (P08514 891-1039 limits assumed): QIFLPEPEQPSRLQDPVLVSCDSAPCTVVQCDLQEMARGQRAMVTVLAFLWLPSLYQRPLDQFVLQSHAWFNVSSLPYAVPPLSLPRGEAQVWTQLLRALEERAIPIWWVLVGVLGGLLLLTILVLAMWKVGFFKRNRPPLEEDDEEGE
# Sequence (P05106 27-788): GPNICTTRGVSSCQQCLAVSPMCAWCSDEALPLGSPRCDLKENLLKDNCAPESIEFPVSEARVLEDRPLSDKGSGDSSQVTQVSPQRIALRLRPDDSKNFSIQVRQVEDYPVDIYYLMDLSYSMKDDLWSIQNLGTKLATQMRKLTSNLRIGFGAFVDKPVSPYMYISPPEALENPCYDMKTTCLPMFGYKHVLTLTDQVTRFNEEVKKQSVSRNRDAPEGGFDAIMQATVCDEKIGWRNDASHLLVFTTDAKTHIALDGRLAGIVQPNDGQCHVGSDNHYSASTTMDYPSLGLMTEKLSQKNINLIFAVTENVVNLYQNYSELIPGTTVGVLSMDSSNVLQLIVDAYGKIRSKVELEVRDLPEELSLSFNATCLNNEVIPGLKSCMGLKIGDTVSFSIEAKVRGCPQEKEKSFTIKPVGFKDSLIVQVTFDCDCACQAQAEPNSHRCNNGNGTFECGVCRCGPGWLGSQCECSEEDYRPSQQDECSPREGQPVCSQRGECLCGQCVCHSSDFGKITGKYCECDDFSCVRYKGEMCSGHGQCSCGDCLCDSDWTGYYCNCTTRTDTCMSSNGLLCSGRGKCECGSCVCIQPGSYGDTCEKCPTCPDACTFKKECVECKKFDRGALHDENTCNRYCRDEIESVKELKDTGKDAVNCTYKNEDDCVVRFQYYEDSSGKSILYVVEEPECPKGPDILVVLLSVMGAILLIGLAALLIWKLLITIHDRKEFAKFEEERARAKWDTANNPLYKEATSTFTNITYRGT
# assay_summary: Purified IIb/IIIa receptor assay (solid phase receptor assay)
# test_conditions: inhibition of binding of biotinylated human vitronectin (1 nM) to purified receptor; Table I
Counter-ions that a name gives are not always drawn.
measure_name: pIC50
Answers are plain numbers, as −log10 of the molar value.

O=C(O)/C=C/c1cccc(C(=O)CCc2cccc(NC3=NCCCN3)c2)c1 [Example 93, trifluoroacetate salt] : 5.22

Below are some compounds; for each one, tell me its pIC50.
1. Cc1cc(/C=C/C(=O)O)ccc1NC(=O)c1cccc(NC2=NCCCN2)c1 [Example 18, trifluoroacetate salt]
2. C/C(=C\C(=O)O)c1ccc(NC(=O)c2cccc(NC(=N)N)c2)cc1 [Example 59, trifluoroacetate salt]
3. O=C(O)/C=C/c1ccc(/C=C/c2cccc(NC3=NCCN3)c2)cc1 [Example 99, trifluoroacetate salt]
4. O=C(O)/C=C/c1cccc(CNC(=O)c2cccc(NC(=O)NCc3ccccc3)c2)c1 [Example 64, trifluoroacetate salt]
5. O=C(O)/C=C/c1ccc(/C=C/c2cccc(NC3=NCCCN3)c2)cc1 [Example 98, trifluoroacetate salt]
6. N=C(N)Nc1cccc(-c2nc(-c3cccc(/C=C/C(=O)O)c3)co2)c1 [Example 102, trifluoroacetate salt]
7. Cc1cc(/C=C/C(=O)O)cc(C)c1NC(=O)c1cccc(NC2=NCCCN2)c1 [Example 24, bis(trifluoroacetate salt)]
8. CC(C)COC(=O)N1CCN=C1Nc1cccc(C(=O)NCc2cccc(/C=C/C(=O)O)c2)c1 [Example 65, monohydrochloride hydrate]

Marked response:
1. 6.74
2. 5.29
3. 6.14
4. 4.79
5. 6.65
6. 5.35
7. 5.08
8. 5.31
